- target_desc: TSP-4 (UniProt P35443)
- Sequence (P35443 27-961): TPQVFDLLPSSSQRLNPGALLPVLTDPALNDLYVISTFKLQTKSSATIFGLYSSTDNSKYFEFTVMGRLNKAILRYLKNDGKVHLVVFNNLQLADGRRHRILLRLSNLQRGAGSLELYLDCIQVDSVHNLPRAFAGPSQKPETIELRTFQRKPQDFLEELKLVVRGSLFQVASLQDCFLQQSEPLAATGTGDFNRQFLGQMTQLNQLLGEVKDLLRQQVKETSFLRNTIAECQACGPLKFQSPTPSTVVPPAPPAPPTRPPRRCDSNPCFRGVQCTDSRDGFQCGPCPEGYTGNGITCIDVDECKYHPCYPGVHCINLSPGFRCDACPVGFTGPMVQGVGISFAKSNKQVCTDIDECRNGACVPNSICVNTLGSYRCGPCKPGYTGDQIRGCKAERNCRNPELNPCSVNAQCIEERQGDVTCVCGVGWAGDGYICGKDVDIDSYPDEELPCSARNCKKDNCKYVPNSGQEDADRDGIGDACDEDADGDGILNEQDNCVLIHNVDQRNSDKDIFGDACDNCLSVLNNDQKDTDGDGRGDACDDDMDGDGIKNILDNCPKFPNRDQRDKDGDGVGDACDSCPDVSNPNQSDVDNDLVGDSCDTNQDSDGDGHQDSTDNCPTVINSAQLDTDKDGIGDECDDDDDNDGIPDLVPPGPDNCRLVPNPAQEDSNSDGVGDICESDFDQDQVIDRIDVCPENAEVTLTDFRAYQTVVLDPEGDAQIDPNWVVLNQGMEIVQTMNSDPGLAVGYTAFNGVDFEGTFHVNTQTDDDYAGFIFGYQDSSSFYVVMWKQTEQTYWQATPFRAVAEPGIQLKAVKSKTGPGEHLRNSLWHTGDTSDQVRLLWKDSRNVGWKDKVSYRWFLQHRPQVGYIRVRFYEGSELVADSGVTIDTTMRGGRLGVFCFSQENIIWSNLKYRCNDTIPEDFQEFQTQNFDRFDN
- assay_protocol: ELISA-style binding assay, TSP-4 on coated GVKGHR foldon construct
- setup_conditions: GVKGHR foldon construct coated to ELISA plate, incubated with TSP4, anti-TSP4 antibody; fitted; triplicates
property_measured: pKd
Lab note: report pKd as minus log10 of the concentration in molar units, number only.

// query pKd value for entry "GVKGHR"
9.25

###

Readings of Melting point (°C) for the listed substances
- assay_protocol: CD spectroscopy thermal unfolding of collagen model peptides
- Assay type: physicochemical
- setup_conditions: CD spectroscopy at 210 nm, heated at 1 °C/min, approx. 0.1 mg/ml, 1 mm cell, 4 parameter logistic fit
Write the answer as a number in °C, unit excluded.

// solved cases for Melting point (°C) follow
substance="GLPGVKGHR [unique region of pep5 in N-Strep-(GPP)6-GUEST-(GPP)6-foldon context]" measured=48.2
substance=GVKGHR measured=56.5
substance="GARGFPGTPGLPGVKGHRGYPGLDGAK [peptide 5, E. coli expressed collagen II library peptide in NStrep-(GPP)6-GUEST-(GPP)6-foldon context]" measured=36.1

// query Melting point (°C) value for entry "GLPGPKGHR"
52.5

// query Melting point (°C) value for entry "GLPGVKGHP"
47.9

// query Melting point (°C) value for entry "GLPGVPGHR"
51.1

From: paper PMC6249252
